System: Echinochloa crus-galli
Experiment: Test Example 12: herbicidal effect test by treatment during growing period in paddy field
Assay type: in vivo
Details: 120 g/10a; treatment seven days after sowing in flooded paddy pot; assessed 14 days after treatment
For each of the molecules below, state its Weed suppression rate (%) Echinochloa crus-galli.
Answers are plain numbers, in %.

Solved cases below.
[
  {
    "molecule": "CC(C)S(=O)(=O)n1ncn(C(=O)N(C)c2ccc(F)cc2F)c1=O [Compound 11-1127]",
    "system_under_test": "Echinochloa crus-galli",
    "experimental_result": 100
  },
  {
    "molecule": "CC(C)N(C(=O)n1cnn(S(=O)(=O)c2ccc(Cl)cc2)c1=O)c1ccc(F)cc1F [Compound 11-588]",
    "system_under_test": "Echinochloa crus-galli",
    "experimental_result": 80
  },
  {
    "molecule": "CC(C)N(C(=O)n1cnn(S(=O)(=O)C(C)C)c1=O)c1ccc(F)c(F)c1F [Compound 11-62]",
    "system_under_test": "Echinochloa crus-galli",
    "experimental_result": 100
  },
  {
    "molecule": "CC(C)N(C(=O)n1cnn(S(=O)(=O)C2CC2)c1=O)c1ccc(Cl)cc1Br [Compound 11-210]",
    "system_under_test": "Echinochloa crus-galli",
    "experimental_result": 90
  },
  {
    "molecule": "CC(C)N(C(=O)n1cnn(S(=O)(=O)C2CCC2)c1=O)c1ccc(F)cc1F [Compound 11-258]",
    "system_under_test": "Echinochloa crus-galli",
    "experimental_result": 90
  },
  {
    "molecule": "CC(C)N(C(=O)n1cnn(S(=O)(=O)C(C)C)c1=O)c1ccc(F)cc1F [Compound 11-59]",
    "system_under_test": "Echinochloa crus-galli",
    "experimental_result": 100
  },
  {
    "molecule": "Cc1cc(Cl)ccc1N(C(=O)n1cnn(S(=O)(=O)C2CCCCC2)c1=O)C(C)C [Compound 11-309]",
    "system_under_test": "Echinochloa crus-galli",
    "experimental_result": 90
  },
  {
    "molecule": "CC(C)N(C(=O)n1cnn(S(=O)(=O)c2cccc(F)c2)c1=O)c1ccccc1 [Compound 11-427]",
    "system_under_test": "Echinochloa crus-galli",
    "experimental_result": 90
  }
]

Provide the reported Weed suppression rate (%) Echinochloa crus-galli of each entry below, same order.
1. CCN(CC)C(=O)n1cnn(S(=O)(=O)c2ccccc2)c1=O [Compound 11-352]
2. Cc1cc(C)c(S(=O)(=O)n2ncn(C(=O)N(c3ccc(F)cc3)C(C)C)c2=O)c(C)c1 [Compound 11-855]
3. Cc1ccccc1S(=O)(=O)n1ncn(C(=O)N(c2ccc(F)cc2F)C(C)C)c1=O [Compound 11-623]
4. CC(C)N(C(=O)n1cnn(S(=O)(=O)C2CCCCC2)c1=O)c1cccc(F)c1 [Compound 11-285]
5. Cc1ccc(S(=O)(=O)n2ncn(C(=O)N(c3cccc(F)c3F)C(C)C)c2=O)cc1 [Compound 11-636]
6. Cc1cc(C)c(S(=O)(=O)n2ncn(C(=O)N(c3ccc(F)cc3Cl)C(C)C)c2=O)c(C)c1 [Compound 11-870]
7. CC(C)N(C(=O)n1cnn(S(=O)(=O)c2ccccc2Cl)c1=O)c1c(F)cc(F)cc1F [Compound 11-516]

Reply:
[100, 80, 100, 90, 100, 90, 100]
